I'd be grateful if you could share measured IC50 for these entries.
- Tested on: RERF-LC-MS
- assay: Cytotoxicity against human RERF-LC-MS cells measured after 8 days
- Format: functional, cell-based
- assay setup: 192 h
Write down the numeric answer in µM and omit the unit.

Task: Please provide the recorded IC50 for `C/C=C/Cn1cc(-c2ccc(C(=O)N3CCOCC3)cc2)c2cc[nH]c2c1=O` , tested on RERF-LC-MS.
Output: 20

Task: For RERF-LC-MS, provide IC50 of `C/C=C/Cn1cc(-c2ccc(C(C)(C)O)cc2OC)c2cc[nH]c2c1=O` please.
Output: 20

Task: For the record `C/C=C/Cn1cc(-c2cc(OC)c(C(=O)N3CCOCC3)cc2OC)c2cc(C)[nH]c2c1=O` , what value of IC50 is listed for RERF-LC-MS?
Output: 2

----------
- Tested on: MEL-HO
- assay: Cytotoxicity against human MEL-HO cells measured after 8 days
- Assay type: functional, cell-based
- assay setup: 192 h
endpoint name: IC50 (µM)
Field format: number, assumed µM, no unit text.

Task: Fill in the blank: the reported IC50 of `C/C=C/Cn1cc(-c2ccc(C(C)(C)O)cc2OC)c2cc[nH]c2c1=O` is ____.
Output: 16.5

Task: What value of measured IC50 is listed for `C/C=C/Cn1cc(-c2ccc(C(=O)N3CCOCC3)cc2)c2cc[nH]c2c1=O` ?
Output: 20

Task: Which IC50 is reported for this molecule? `C/C=C/Cn1cc(-c2cc(OC)c(C(=O)N3CCOCC3)cc2OC)c2cc(C)[nH]c2c1=O`
Output: 2

----------
- System: HLE
- assay: Cytotoxicity against human HLE cells measured after 3 days
- Format: functional, cell-based
- assay setup: 72 h
endpoint name: IC50 (µM)
Please respond with the number in µM and leave the unit unwritten.

Task: Please give the measured IC50 for this compound: `C/C=C/Cn1cc(-c2cc(OC)c(C(=O)N3CCOCC3)cc2OC)c2cc(C)[nH]c2c1=O`
Output: 5

----------
- measured on: L-type calcium channel, verapamil binding site (Rattus norvegicus, UniProt P22002+P27732+Q02485)
- assay: Displacement of [3H]D 888 from rat brain L-type calcium channel verapamil binding site at 10 uM after 120 mins by scintillation counting analysis relative to control
- assay setup: rat brain L-type calcium channel preparation, probe [3H]D 888, read-out: Activity
endpoint name: inhibition at 2 h, 10 µM (%)
Number only, in %; omit the unit.

Task: Tell me the measured inhibition at 2 h, 10 µM of `C/C=C/Cn1cc(-c2ccc(C(=O)N3CCOCC3)cc2)c2cc[nH]c2c1=O` , please.
Output: 7

Task: I have this compound here, `C/C=C/Cn1cc(-c2cc(OC)c(C(=O)N3CCOCC3)cc2OC)c2cc(C)[nH]c2c1=O` , and I need its recorded inhibition at 2 h, 10 µM.
Output: 3

Task: Fill in the blank: the reported inhibition at 2 h, 10 µM of `C/C=C/Cn1cc(-c2ccc(C(C)(C)O)cc2OC)c2cc[nH]c2c1=O` is ____.
Output: -3

----------
- Tested on: BT-474
- assay: Cytotoxicity against human BT-474 cells measured after 3 days
- Assay type: functional, cell-based
- assay setup: BT-474, 72 h
endpoint name: IC50 (µM)
Quick reminder: number only, in µM, skip the unit.

Task: Recorded IC50 for `C/C=C/Cn1cc(-c2cc(OC)c(C(=O)N3CCOCC3)cc2OC)c2cc(C)[nH]c2c1=O` , please?
Output: 5
